- experimental_system: HLA B*1501 (Homo sapiens, UniProt P01889, A329T/A93T/A95T/C349S/D201E/D98Y/E187L/E204Q/E69M/E70A/K202T/N87E/Q94N/R155S/R180W/S121R/S35A/S48A/V306I/V36M/Y140S/Y91S)
- test_summary: biochemical
Where a SMILES comes first, the peptide text is derived from it.
Mark 1 only when IC50 stays strictly below 20 nM. Values equal to the cut-off are -1.

compound	class_assignment
CC[C@H](C)[C@H](NC(=O)CNC(=O)[C@@H]1CCCN1C(=O)[C@@H](NC(=O)[C@H](CCCNC(=N)N)NC(=O)[C@H](CCC(N)=O)NC(=O)[C@H](CCCCN)NC(=O)[C@H](CC(C)C)NC(=O)[C@@H](N)CCCNC(=N)N)[C@@H](C)O)C(=O)O [3102.0640] (H-RLKQRTPGI-OH)	1
CC(C)C[C@H](NC(=O)[C@@H]1CCCN1C(=O)[C@H](CO)NC(=O)[C@H](Cc1ccccc1)NC(=O)[C@H](Cc1ccc(O)cc1)NC(=O)[C@H](CCCCN)NC(=O)[C@H](C)NC(=O)[C@@H](NC(=O)[C@H](C)N)C(C)C)C(=O)O [3102.0978] (H-AVAKYFSPL-OH)	1
CC(C)C[C@H](NC(=O)[C@H](CCCCN)NC(=O)[C@H](CCCCN)NC(=O)[C@H](Cc1ccc(O)cc1)NC(=O)[C@H](CC(C)C)NC(=O)[C@@H](NC(=O)[C@@H](N)Cc1ccc(O)cc1)[C@@H](C)O)C(=O)N[C@@H](CO)C(=O)N[C@@H](Cc1ccccc1)C(=O)O [3102.0333] (H-YTLYKKLSF-OH)	1
CC(C)C[C@H](NC(=O)[C@H](CO)NC(=O)[C@H](CO)NC(=O)CNC(=O)[C@H](CO)NC(=O)[C@H](CCCCN)NC(=O)[C@H](C)NC(=O)[C@H](CCC(N)=O)NC(=O)[C@@H](N)CC(C)C)C(=O)O [3102.1276] (H-LQAKSGSSL-OH)	1
CC[C@H](C)[C@H](NC(=O)[C@@H](NC(=O)[C@@H](N)CCCCN)[C@@H](C)O)C(=O)N[C@@H](C)C(=O)N[C@@H](CCCNC(=N)N)C(=O)N[C@@H](Cc1ccccc1)C(=O)N[C@H](C(=O)N[C@@H](Cc1ccc(O)cc1)C(=O)N[C@@H](Cc1ccccc1)C(=O)O)[C@@H](C)O [3102.1031] (H-KTIARFTYF-OH)	1
C[C@@H](O)[C@H](N)C(=O)N[C@@H](CO)C(=O)NCC(=O)N[C@@H](CCCCN)C(=O)N[C@@H](Cc1ccc(O)cc1)C(=O)N[C@@H](Cc1ccccc1)C(=O)N[C@@H](CO)C(=O)N[C@H](C(=O)N[C@@H](Cc1ccccc1)C(=O)O)[C@@H](C)O [3102.0812] (H-TSGKYFSTF-OH)	-1
CC[C@H](C)[C@H](NC(=O)[C@@H](N)CCCCN)C(=O)NCC(=O)N[C@@H](CCSC)C(=O)N[C@@H](Cc1ccccc1)C(=O)N[C@@H](CC(N)=O)C(=O)N[C@@H](CC(C)C)C(=O)N[C@H](C(=O)N[C@@H](Cc1ccccc1)C(=O)O)[C@@H](C)O [3102.0341] (H-KIGMFNLTF-OH)	1
CC[C@H](C)[C@H](N)C(=O)N[C@@H](CO)C(=O)N[C@H](C(=O)N[C@@H](CCCCN)C(=O)N[C@@H](CC(C)C)C(=O)N[C@@H](CO)C(=O)N[C@@H](CS)C(=O)N[C@@H](Cc1c[nH]cn1)C(=O)N[C@@H](Cc1ccc(O)cc1)C(=O)O)[C@@H](C)O [3102.0872] (H-ISTKLSCHY-OH)	1
CC(C)C[C@H](NC(=O)[C@@H](N)CC(C)C)C(=O)N[C@@H](CCCCN)C(=O)N1CCC[C@H]1C(=O)N[C@@H](CCCNC(=N)N)C(=O)N[C@@H](CS)C(=O)N[C@@H](CC(N)=O)C(=O)N1CCC[C@H]1C(=O)N[C@@H](C)C(=O)O [3102.0901] (H-LLKPRCNPA-OH)	-1
CC[C@H](C)[C@H](NC(=O)[C@H](CCC(=O)O)NC(=O)[C@@H](N)CO)C(=O)N[C@@H](CCCNC(=N)N)C(=O)N[C@@H](Cc1c[nH]c2ccccc12)C(=O)N[C@@H](CCC(=O)O)C(=O)N[C@@H](CCC(=O)O)C(=O)N[C@@H](CO)C(=O)N[C@@H](Cc1ccccc1)C(=O)O [3102.0890] (H-SEIRWEESF-OH)	-1
CC[C@H](C)[C@H](NC(=O)[C@H](C)NC(=O)[C@@H](N)Cc1ccccc1)C(=O)N[C@@H](CO)C(=O)N[C@@H](Cc1ccc(O)cc1)C(=O)N[C@@H](CS)C(=O)N[C@@H](CCCNC(=N)N)C(=O)N[C@@H](C)C(=O)N[C@@H](Cc1ccccc1)C(=O)O [3102.0920] (H-FAISYCRAF-OH)	-1
CC[C@H](C)[C@H](N)C(=O)N[C@@H](CO)C(=O)N[C@@H](CCCCN)C(=O)N[C@@H](CC(N)=O)C(=O)N[C@@H](C)C(=O)N[C@@H](Cc1ccccc1)C(=O)N[C@@H](CO)C(=O)N[C@@H](CS)C(=O)N[C@@H](CCSC)C(=O)O [3102.0935] (H-ISKNAFSCM-OH)	-1
CC[C@H](C)[C@H](NC(=O)[C@@H](N)CC(N)=O)C(=O)N[C@@H](Cc1ccccc1)C(=O)N1CCC[C@H]1C(=O)N[C@@H](Cc1ccccc1)C(=O)N[C@@H](Cc1ccccc1)C(=O)N[C@H](C(=O)N[C@@H](C)C(=O)N[C@@H](Cc1ccccc1)C(=O)O)C(C)C [3102.1019] (H-NIFPFFVAF-OH)	1
